Biological target: PcaKP.Put (Pseudomonas putida, UniProt Q51955)
Construct: full-length transporter expressed in Pseudomonas putida KT2440 delta-pcaK with PcaV-sfGFP reporter plasmid
Sequence (Q51955 1-448): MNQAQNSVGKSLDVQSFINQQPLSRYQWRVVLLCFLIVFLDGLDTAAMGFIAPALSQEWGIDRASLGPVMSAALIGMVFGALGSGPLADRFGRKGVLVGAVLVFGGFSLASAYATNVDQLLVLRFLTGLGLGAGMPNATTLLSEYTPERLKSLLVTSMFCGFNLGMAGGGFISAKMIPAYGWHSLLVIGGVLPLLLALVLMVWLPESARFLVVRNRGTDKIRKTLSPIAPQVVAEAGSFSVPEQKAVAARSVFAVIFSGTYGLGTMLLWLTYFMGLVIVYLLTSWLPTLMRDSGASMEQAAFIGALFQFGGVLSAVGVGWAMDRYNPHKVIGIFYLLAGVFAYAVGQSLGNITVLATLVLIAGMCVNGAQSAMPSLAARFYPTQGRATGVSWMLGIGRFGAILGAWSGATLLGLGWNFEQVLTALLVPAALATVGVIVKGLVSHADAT
Assay: uptake-coupled PcaV-sfGFP biosensor dose response in P. putida KT2440 delta-pcaK
ASSAY ENDPOINT: pEC50
# pEC50: negative log10 of molar concentration; output just the value

Query: Quick check: pEC50 on PcaKP.Put (Pseudomonas putida, UniProt Q51955), item O=C(O)c1ccc(O)c(O)c1 [P2, protocatechuic acid] ?
Response: 2.69
